# SYSTEM_TESTED: human PPARγ receptor (Homo sapiens, UniProt P37231)
# Construct: corresponding to Ser204-Tyr506 for human PPARγ1 receptor and human PPARγ2; expressed in transfected cells; host or cells: CV-1 cells (pSG5-based expression vector)
# Sequence (P37231 204-505 limits assumed): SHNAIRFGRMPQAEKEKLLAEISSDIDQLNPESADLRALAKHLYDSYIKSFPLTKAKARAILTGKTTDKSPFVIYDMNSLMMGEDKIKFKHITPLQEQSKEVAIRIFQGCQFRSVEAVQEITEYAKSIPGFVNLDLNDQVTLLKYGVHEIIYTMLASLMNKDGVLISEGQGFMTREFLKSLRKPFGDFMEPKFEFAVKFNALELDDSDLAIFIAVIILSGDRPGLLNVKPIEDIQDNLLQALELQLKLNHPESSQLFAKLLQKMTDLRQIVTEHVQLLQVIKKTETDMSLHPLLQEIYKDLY
# PROTOCOL_DESCRIPTION: Luciferase reporter assay of PPARγ agonist activity (Gal4-PPARγ chimera receptor in CV-1 cells)
# Type: cell-based
# CONDITIONS_USED: CV-1, 0.1 μM compound, luciferase activity with 1 μM Pioglitazone taken as 100, read-out: PPAR γ agonist activity, relative activity
Quick reference for Emax at 0.1 µM among some compounds

# COMPOUND, Emax at 0.1 µM, %
data = [
    ("CCOC(Cc1ccc(OCc2cnc3cc(OC)c(OC)cc3c2OC(C)C)cc1)C(=O)O (centres unmarked)", 1.3),
    ("CCOC(Cc1cccc(OCc2cnc3ccc(OC)cc3c2OC(C)C)c1)C(=O)O (centres unmarked)", 9.3),
    ("CCCCNC(=O)C(Cc1ccc(OCc2cnc3ccc(OC)cc3c2OC(C)C)cc1)OCC (centres unmarked)", 0.4),
    ("CCOC(Cc1ccc(OCc2cnc3cc(C)cc(C)c3c2OC(C)C)cc1)C(=O)O (centres unmarked)", 0.3),
    ("CCOC(Cc1ccc(OCc2cnc3ccc(OC)cc3c2OC(C)C)cc1)C(N)=O (centres unmarked)", 74.1),
    ("COc1ccc2ncc(COc3ccc(C=C(C(C)=O)C(C)=O)cc3)c(OC(C)C)c2c1", 0.1),
    ("CCOC(Cc1ccc(OCc2cnc3cc(C(F)(F)F)ccc3c2OC(C)C)cc1)C(=O)O (centres unmarked)", 1.2),
    ("CCOC(Cc1ccc(OCc2cnc3c(F)cccc3c2OC(C)C)cc1)C(=O)O (centres unmarked)", 52.3),
]

---

# SYSTEM_TESTED: human PPARα receptor (Homo sapiens, UniProt Q07869)
# Construct: expressed in transfected cells; host or cells: CV-1 cells (pSG5-based expression vector)
# Sequence (Q07869 167-468): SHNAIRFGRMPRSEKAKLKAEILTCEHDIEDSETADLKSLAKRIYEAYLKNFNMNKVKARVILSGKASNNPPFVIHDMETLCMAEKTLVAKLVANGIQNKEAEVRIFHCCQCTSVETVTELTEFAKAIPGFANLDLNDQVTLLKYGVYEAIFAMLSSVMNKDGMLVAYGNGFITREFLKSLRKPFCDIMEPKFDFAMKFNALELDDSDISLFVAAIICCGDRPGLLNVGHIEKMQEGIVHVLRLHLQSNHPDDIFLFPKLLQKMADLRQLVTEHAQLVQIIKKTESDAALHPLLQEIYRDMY
# PROTOCOL_DESCRIPTION: Luciferase reporter assay of PPARα agonist activity (Gal4-PPARα chimera receptor in CV-1 cells)
# Assay type: cell-based
# CONDITIONS_USED: CV-1, 0.1 μM compound, luciferase activity with 10 μM Wy-14,643 taken as 100, read-out: PPARα agonist activity, relative activity
PROPERTY_LABEL: Emax at 0.1 µM (%)

# COMPOUND, MEASURED_NUMBER
rows = [
    ("CCOC(=O)C(Cc1ccc(OCc2cnc3ccc(OC)cc3c2OC(C)C)cc1)OCC (stereo not shown) [Example 1 (101)]", 0.2),
    ("CCCCNC(=O)C(Cc1ccc(OCc2cnc3ccc(OC)cc3c2OC(C)C)cc1)OCC (stereo not shown) [Example 4 (104)]", 0.3),
    ("COc1ccc2ncc(COc3ccc(/C=C(\\Sc4ccccc4)C(=O)O)cc3)c(OC(C)C)c2c1 [Example 18 (112)]", 0.3),
    ("CCOC(Cc1ccc(OCc2cnc3c(Cl)cccc3c2OC(C)C)cc1)C(=O)O (stereo not shown) [Example 13 (76)]", 0.3),
    ("CCOC(Cc1ccc(OCc2cc(OC)c3ccccc3n2)cc1)C(=O)O (stereo not shown) [Example 11 (99)]", 25.2),
    ("CCOC(Cc1ccc(OCc2cccc3cccnc23)cc1)C(=O)O (stereo not shown) [Example 16 (32)]", 0.3),
    ("CCOC(Cc1ccc(OCc2cnc3cc(OC)c(OC)cc3c2OC(C)C)cc1)C(=O)O (stereo not shown) [Example 8 (65)]", 0.3),
]
